Test system: MS2 coat protein
Experiment: apparent KD of MS2 coat protein; higher = weaker reporter binding
Conditions: Eterna round: R107; input ligand: tryptophan 2.4 mM
Quantity kind: apparent KD of MS2 coat protein

Worked cases, apparent KD of MS2 coat protein given:
UGGGCAUACAUGAGGAUCACCCAUGUAGAUACCAGCACUAGCCUGUGCCCUUGGCAGCUAACCGGGUCGAGAACUUAGUGCUCCU [Lexele]: 11.5 nM
UGUAUGGACUGAAGGAGCGCAUCAAAAUAACAUGAGGAUCACCCAUGUAAGGCGAAAGCCGUGCAGGUAGGUCGCAGUCCAUACU [ArgBX 3]: 15.3 nM

Shifting focus to the sequence that follows.
Value lookup for apparent KD of MS2 coat protein; key = GAGCGCAGUUUACAACAUACUAACACAGAUACCAGAAAUUUUAUGUUCCCUUGGCAGCUGACAACAUGAGGAUCACCCAUGUGCU [theeternabot_exclusion_MS2_Theo_A_27]
15.7 nM

###

Test system: MS2 coat protein
Experiment: apparent KD of MS2 coat protein, switch OFF state (with FMN for OFF switches, without FMN for ON switches); designed switch direction (-1 OFF switch, 1 ON switch): 1; higher = weaker reporter binding
Conditions: FMN input: 0 or 200 uM; Eterna round: R93 (includes R88 designs)
Quantity kind: apparent KD of MS2 coat protein (nM)
Kindly answer with a numeric value in nM, unit omitted.

Example results:
AAAAAACAUGAGGAUCACCCAUGUCAAAAGACGUGAGGAUAUGUACAGACUUCGGUCUGUACAGAAGGCAUGAAAA [SS1 - 1056]: 136
UAAUAAUAAACCAAGGAUAUGGAGUUUCCAACAUGAGGAUCACCCAUGUUUUGCUUGUAAUCGAUCCAGAAGGUGGAGCCAAAUA [JR_SS002_Sub1006]: 68.4
ACAAACAAAAAAGAGGAUAUCCAAAACAAAACAUGAGGAUCACCCAUGUAAAAGAAAAGAAAAUGGGAGAAGGCUUACAACAAAC [SS2 M 22]: 28.2

Requested field: apparent KD of MS2 coat protein. Item: AAGAGAAGAACUGAGGAUAUCAGGGAUGGUACAUGAGGAUCACCCAUGUUGGCAAGCGAAGAAACUGAGAAGGCAGAGAAGAAGAA [JR_SameState2_Sub6]
34.3

Same for UAAAAACAUGAGGAUCACCCAUGUGAGAACAUGGGAGGAUAUACGAGGACGAAAGUCAAAGUAGAAGGCCUAAAAG [Garnet 84]
101

Next sequence: AAACCACAUGAGGAUCACCCAUGUAGAAAUAUGGGAGGAUAUACAAACACGAAAGUGAAAGUAGAAGGCCUAAAAG [77%, Mat - Mod of Eli, 7]
118

Another sequence: GAAAAACAUGAGGAUCACCCAUGUGAAAAUAUGGAAGGAUAUACAAAGACGAAAGUCAAAGUAGAAGGUCUAAAAG [Mat - Same State 1 - Eli mod - D14]
22.5

# repeat for AAAAUAAAAUAAAAGGAUAUAAAAUAAAAAACAUGAGGAUCACCCAUGUAAAAACAUGGGUGAAAAAAGAAGGAAAAAUAAAAAA [SS2: 70 No MS2]
1.74

Note, next up: GAAAAACAUGAGGAUCACCCAUGUAAGAUAAACACAGGAUAUGCGAAAAUAAACAAAGAAGCAGAAGGGUGAAGAA [Mat - Same State 1 - Tesla mod - 72]
80.3

Please answer likewise for GAAGACGUAGGAUAGGAUAUGUGAAUAAUUACAUGAGGAUCACCCAUGUCCAUUUAUAUGGGAACAUAGAAGGGUUUUCGUUAUC [SameState2 Malc#9]
281

Let us now turn to CGCGGGCCCGGGCAGGAUAUCCGGCCUCGGACAUGAGGAUCACCCAUGUGGCCGAAAGGCCGGUGGGAGAAGGGCCCGGGCCCGC
23.1

###

Tested on: MS2 coat protein
Assay: apparent KD of MS2 coat protein; higher = weaker reporter binding
Conditions: Eterna round: R107; input ligand: theophylline 20 uM
Quantity kind: apparent KD of MS2 coat protein (nM)
The answer is to be given in nM; state only the numeric part.

Example results:
GAUGAACUAUAUGAUACCAGACAACAUGAGGAUCACCCAUGUGAUAGUCGUCCUCUGCCUGUCCCUUGGCAGCGUAUAGUUUAUC [XTheo B #19]: 74.7
UAAAACAUGAGGAUCACCCAUGUAAUUGAUACCAGAGUGAUGAUCCUCCCUUGGCAGCAAAACGCUGAUUGGAAACAAUCAGCGA [Mat - Same State Theophlline A - Mod of Eli - D25]: 102

Dear colleague, I am looking for the recorded apparent KD of MS2 coat protein of the following sequence: UGUAUGUGAUCUGAUACCAGAGUGAAUAAACCUGAGGAUCACCCUGGUACGCGAAAGCGACUCCCUUGGCAGCAGAUCGCAUACU
108

Entry ACGACGCAUAGUGAUACCAGUAGAACAUGAGGAUCACCCAUGUCUGUGACGCACAAACUCUGCCCUUGGCAGCACUAUGCGUCAG [SSTheo B #7] please
15.9

Same lookup for CGAAUGAAGCAAGAUACCAGUGUAGAUUUAGACAUGAGGAUCACCCAUGUGAGGCAUGAGCACCCUUGGCAGCUUAAGCAGAAAA [theeternabot_sameState_MS2_Theo_B_47] , please.
25.7

Subsequent entry: AUAUAUACAUGAGGAUCACCCAUGUUAUUUCGAGGACCGGUACGGCCGCCACUCGAUAGAGUAGAAGUAACAUUUGUUAGAUGUA [JR_SSTryptoA_Sub011]
28.3

Next sequence: CCUGCGUUUCUUUUCUUUCGCAGGAAUGAUACCAGUAGGGAAACCUACCCUUGGCAGCAUGGGACAUGAGGAUCACCCAUGUUUU [SSThA NP+V+V2 #4]
202

###

Test system: K4 kissing-loop RNA reporter;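 also: bound reporter read as fluorescence of individual clusters on recovered sequencing chips by microscopy, with normalized cluster intensities fitted with a binding model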
Experiment: apparent KD of K4 kissing-loop reporter; higher = weaker reporter binding
Conditions: Eterna round: R107; input ligand: none
Think of 900 nM as a floor: if apparent KD of K4 kissing-loop reporter stands on it or above, it is Fulfilled; beneath it, Not fulfilled.

UAGAUGUUGUAAGAUAUUGAUAGUCGGGAAGGAGCGCUCACAAUAGCAGGUAGGUCGCCCGACAGUGUUAGGAGUGAUGUUCCUU [7.)]: Not fulfilled
UUAUUAAUAACAGAUACCAGUCCAGAAUGAAUACUAUAGUGAUGUUAUAAUAAAGGGAAGGACCCUUGGCAGCUGUAAUAUAUUU [AstrosSSTheB#1]: Not fulfilled
UGACUGGACUGAAGGAGCGGGAAACUCCUAGUGAUGUUAGGAAUACGAGACAAAGUCUCGACCCAGGUAGGUCGCAGUCUAGUCU [ArgBS 17 #SwitchBubble #StaticStem]: Not fulfilled
UAUGGUCCAUCAAGAGUAGUGAUGUUAUAACGAGGACCGGUACGGCCGCCACUCGAGGCCGUAAUACUCGAUCGGAUGCUGAGUG [theeternabot_exclusion_KL_Trp_A_28]: Fulfilled
AAGGUUGUGCAUGGGAGUGAUGUUCCCACGCAGGAUAUCGCUCACGCGAGAAGGGCGAGCACAACCGCUCAAGAAACUUGAGCAA [Omei KL FMN A SS C v2]: Not fulfilled
GCCGUACGCAUGGAUACCAGCAAUUAUGCUCGUAUCCUAGUGAUGUUAGUGGCGAAUAUUUGCCCUUGGCAGCCAUGCGUACGGC: Fulfilled

Given UUUUACGAGUGAUGUUCGUAUUGUAAUAGUUAGGAUAUCGUUUUUUCGAGAAGGAACUUCGAAGUGAUACGAAAGUAUCGCUUCG [FMN A 10] , state whether its apparent KD of K4 kissing-loop reporter is at least 900 nM.
Not fulfilled

Likewise for ACGUGUCACUGAAGGAGCGUCUACCGAAUACGAGUGAUGUUGGUAUACCACUUAUAUAGUGGACAGGUAGGUCGCAGUGAUACGU [Arg B Ex t4] ?
Fulfilled

###

Test system: MS2 coat protein
Assay: apparent KD of MS2 coat protein; designed switch direction (-1 OFF switch, 1 ON switch): -1; higher = weaker reporter binding
Settings: input ligand: none
Quantity kind: apparent KD of MS2 coat protein (nM)
Expressed in nM, but write only the number.

The cases that follow already have their apparent KD of MS2 coat protein on record.
UACACUGCAUGAGGAUCAAACAUGAGGAUCACCCAUGUGUAGCAAGCUUUUUGCUCGUCUUAUAAUUAUGUAGUGUA [Electric Eye 11 - Jieux - Sensor, turn-off variant 1] (Eterna round: R97, puzzle: Sensor, turn-off variant 1): 12.1
GUAGUGUUAGGAUAUCUGCCUCCGAGGUAUUCCAUGAAUAGAGAGAAGGGACAUGAGGAUCACCCAUGUGGGUA [Eternabot (L2) Solution 92] (Eterna round: R97, puzzle: Exclusion 4): 295
UAAUGUGCGAGAGGAUAUCGUGUACAAAGUACACGAGAAGGCUUCACAUGAGGAUCACCCAUGUACCGAGGUGAAACACCUUGG [Omei Exc(NG)1 Bv1] (Eterna round: R96, puzzle: Exclusion NG 1): 220
CCUAUGUGAGGAUAUCACUGGUCUUUUCAUUAGAUGAUCAGUGAGAAGGCACAUGAGGAUCACCCAUGUCAGUG [Ex4 - 3 - 53] (Eterna round: R96, puzzle: Exclusion 4): 110

Now examine the next entry.
I'd like to know its apparent KD of MS2 coat protein. The sequence in question is UAAUUAGACUCAGGAUAUUCGAAGAGAAGAGAGGAAGAAGGGAGGUGACAUGAGGAUCACCCAUGUAUGUGUUGUGUCCAUGUG [Exclusion NG 1 S1] (Eterna round: R96, puzzle: Exclusion NG 1)
617
